system: HCT-116; experiment: Growth inhibition of human HCT116 cells after 48 hrs; format: functional; conditions: HCT-116, 48 h
Kindly apply the following: 1 if GI50 is less than 10 µM, 0 in every other case.

COC(=O)C(Cc1c[nH]cn1)NC(=O)CNC(=O)CCCn1c(=O)c2c3ccccc3n(C)c2n2nnc(-c3ccccc3)c12 (stereo unspecified) : 0
CCCCN(CCCC)CCCn1c(=O)c2c3ccccc3n(C)c2n2nnc(-c3ccccc3)c12 : 0
Cn1c2ccccc2c2c(=O)n(CCCC(=O)NCC(=O)N(C(=O)NC3CCCCC3)C3CCCCC3)c3c(-c4ccccc4)nnn3c21 : 0
CCOC(=O)CNC(=O)CCCn1c(=O)c2c3ccccc3n(C)c2n2nnc(-c3ccccc3)c12 : 1
Cn1c2ccccc2c2c(=O)n(CCCC(=O)N(C(=O)NC3CCCCC3)C3CCCCC3)c3c(-c4ccccc4)nnn3c21 : 0

Decide: GI50 of Cn1c2ccccc2c2c(=O)n(CCCC(=O)NCCc3c[nH]cn3)c3c(-c4ccccc4)nnn3c21 strictly below 10 µM?
1
